# assay-overview: Oral bioavailability in rat at 2.1 mg/kg
# Format: ADME, organism-based
# settings: in vivo
readout-name: bioavailability (%)
One number for each entry, in %.

Query: For the compound CN1C(=O)[C@@H](NC(=O)c2nnc(Cc3ccccc3)[nH]2)COc2ccccc21 [GSK2982772] , what bioavailability is on record?
Response: 110

====

# assay-overview: Volume of distribution at steady state in rat at 1.1 mg/kg, iv
# Assay type: ADME, organism-based
# settings: in vivo, read-out: Vdss
readout-name: Vd (L/kg)
One number for each entry, in L/kg.

Query: For the compound CN1C(=O)[C@@H](NC(=O)c2nnc(Cc3ccccc3)[nH]2)COc2ccccc21 , what Vd is on record?
Response: 2.7
